Species: Homo sapiens
Test: Modulation of p-glycoprotein in human MDA435/LCC6MDR cells assessed as ratio of IC50 for paclitaxel in absence of drug to IC50 for paclitaxel in presence of 1 uM of drug after 5 days by MTS assay
Assay type: cell-based
endpoint label: Ratio IC50

[[record]]
compound = "COc1ccc(C2=C(c3ccc(OC)c(OC)c3)C(=O)N(C(=O)N3CCN(CC(=O)c4ccc(S(C)(=O)=O)cc4)CC3)C2=O)cc1OC"
value_reported = 1

[[record]]
compound = "COc1ccc(C2=C(c3ccc(OC)c(OC)c3)C(=O)N(C(=O)Nc3ccc4c(c3)C(=O)OC4)C2=O)cc1OC"
value_reported = 1.1

[[record]]
compound = "COc1ccc(C2=C(c3ccc(OC)c(OC)c3)C(=O)N(CC(=O)c3cc(Br)c(OCc4ccccc4)cc3OCCO)C2=O)cc1OC"
value_reported = 21.4

[[record]]
compound = "COc1ccc(C2=C(c3ccc(OC)c(OC)c3)C(=O)N(C(=O)N3CCN(CC(=O)c4ccc(OCc5ccccc5)c(OC)c4)CC3)C2=O)cc1OC"
value_reported = 5.4

[[record]]
compound = "CCCCC1OC(=O)c2cc(NC(=O)N3C(=O)C(c4ccc(OC)c(OC)c4)=C(c4ccc(OC)c(OC)c4)C3=O)ccc21 (stereo not given)"
value_reported = 2.4

